# assayed_target: hCA I (Homo sapiens, UniProt P00915)
# Sequence (P00915 whole entry): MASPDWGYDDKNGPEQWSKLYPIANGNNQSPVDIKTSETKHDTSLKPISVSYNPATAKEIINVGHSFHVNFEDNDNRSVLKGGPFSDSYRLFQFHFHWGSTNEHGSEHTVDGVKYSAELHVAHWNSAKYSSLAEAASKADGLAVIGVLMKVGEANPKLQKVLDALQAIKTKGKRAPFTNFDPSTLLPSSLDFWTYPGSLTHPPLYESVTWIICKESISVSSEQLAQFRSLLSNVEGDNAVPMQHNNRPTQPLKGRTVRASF
attribute_measured: IC50

1) CC(=NNc1nc(-c2ccc(F)cc2)cs1)c1ccc(S(C)(=O)=O)cc1 [2d] : 103 µM
2) CC(=NNc1nc(-c2ccc(Cl)cc2)cs1)c1ccc(S(C)(=O)=O)cc1 [2k] : 58.7 µM
3) CC(=NNc1nc(-c2ccc(Cl)c(Cl)c2)cs1)c1ccc(S(C)(=O)=O)cc1 [2h] : 60.8 µM
4) CC(=NNc1nc(-c2ccc(Br)cc2)cs1)c1ccc(S(C)(=O)=O)cc1 [2f] : 133 µM
5) CC(=NNc1nc(-c2ccc(F)cc2F)cs1)c1ccc(S(C)(=O)=O)cc1 [2i] : 52.9 µM
6) CC(=NNc1nc(-c2cccc([N+](=O)[O-])c2)cs1)c1ccc(S(C)(=O)=O)cc1 [2j] : 80.6 µM
7) CC(=NNc1nc(-c2ccc(C#N)cc2)cs1)c1ccc(S(C)(=O)=O)cc1 [2c] : 63 µM
8) CC(=NNc1nc(-c2ccc([N+](=O)[O-])cc2)cs1)c1ccc(S(C)(=O)=O)cc1 [2a] : 39.4 µM

###

Items are presented alongside their recorded pIC50.
# assayed_target: hCA II (Homo sapiens)
pIC50: −log10 of the molar value.
attribute_measured: pIC50

1. CC(=NNc1nc(-c2ccccc2)cs1)c1ccc(S(C)(=O)=O)cc1 : 4.27
2. CC(=NNc1nc(-c2ccc(Cl)c(Cl)c2)cs1)c1ccc(S(C)(=O)=O)cc1 : 4.41
3. CC(=NNc1nc(-c2ccc(F)cc2)cs1)c1ccc(S(C)(=O)=O)cc1 : 4.27
4. CC(=NNc1nc(-c2ccc(Br)cc2)cs1)c1ccc(S(C)(=O)=O)cc1 : 4.29
5. CC(=NNc1nc(-c2cccc([N+](=O)[O-])c2)cs1)c1ccc(S(C)(=O)=O)cc1 : 4.19
